From: patent US20220306630A1

Target: RORgT (Homo sapiens, UniProt P51449)
Construct: Gal4 (fusion partner); expressed in transfected cells; host or cells: engineered Jurkat cells (Jurkat pEx/Gal/hRORγ CLBD/HYG pG5luc/blast)
Sequence (P51449 267-516): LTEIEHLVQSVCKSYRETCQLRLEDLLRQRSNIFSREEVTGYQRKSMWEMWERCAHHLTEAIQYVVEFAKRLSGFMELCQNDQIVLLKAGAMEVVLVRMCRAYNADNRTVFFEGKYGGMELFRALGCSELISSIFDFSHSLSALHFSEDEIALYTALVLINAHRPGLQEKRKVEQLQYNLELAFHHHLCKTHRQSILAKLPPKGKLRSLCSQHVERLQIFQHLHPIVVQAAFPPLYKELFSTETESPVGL
Test: RORgT Gal4 Luciferase Reporter Gene Assay
Assay type: cell-based
Conditions: engineered Jurkat cells overexpressing RORgT (LBD or full length) with Gal4 Luc reporter; 18 hours at 37° C.; 40 μM to 0.67 nM; read-out: RORg_GAL4 EC50
OUTCOME MEASURE: EC50 (nM)
Report only the number, with the unit nM understood.

Below, 3 compounds whose answers are already recorded.
| COMPOUND | EC50 [nM] |
| --- | --- |
| COC(=O)CCC(=O)Nc1cc(Cl)c(Oc2ccc(OC)c(C(C)C)c2)c(Cl)c1 [Example 295] | 308 |
| COc1ccc(Oc2c(Cl)ccc(C(=O)NCCNC(C)=O)c2Cl)cc1C(C)C [Example 221] | 560 |
| COc1ncc(Oc2c(Cl)ccc(NC(=O)Cc3cccc(S(C)(=O)=O)c3)c2Cl)cc1C(C)C [Example 141] | 182 |

Now take the following compound into account.
Exercise: Param readout = EC50; param system = RORgT (Homo sapiens, UniProt P51449); param query = COc1ccc(Oc2c(Cl)cc(NC(=O)c3ccccc3)cc2Cl)cc1C(C)C [Example 299] ; response: value
Solution: 20000

###

biological target: RORgT (Homo sapiens, UniProt P51449); construct: Gal4 (fusion partner); expressed in transfected cells; host or cells: engineered Jurkat cells (Jurkat pEx/Gal/hRORγ CLBD/HYG pG5luc/blast); test: RORgT Gal4 Luciferase Reporter Gene Assay; type: cell-based; conditions: engineered Jurkat cells overexpressing RORgT (LBD or full length) with Gal4 Luc reporter; 18 hours at 37° C.; 40 μM to 0.67 nM; read-out: RORg_GAL4 EC50
Binned EC50; ranges: class 1 (below 40 nM), class 2 (40 nM to below 200 nM), class 3 (200 nM or more)

Solved cases below.
| COMPOUND | ASSAYED TARGET | CLASS LABEL |
| --- | --- | --- |
| COc1ccc(Oc2c(Cl)cc(NC(=O)Cc3cccc(S(C)(=O)=O)c3)cc2Cl)cc1C(C)C [Example 231] | RORgT (Homo sapiens, UniProt P51449) | class 1 |
| COc1ccc(Oc2c(Cl)ccc(C(=O)NCc3cnc(C)cn3)c2Cl)cc1C(C)C [Example 206] | RORgT (Homo sapiens, UniProt P51449) | class 2 |
| COc1ccc(Oc2c(Cl)ccc(C(=O)NCc3ccc(C#N)cc3)c2Cl)cc1C(C)C [Example 228] | RORgT (Homo sapiens, UniProt P51449) | class 2 |
| COc1ccc(Oc2c(F)cc(NC(=O)Cc3cccnc3)cc2F)cc1C(C)C [Example 40] | RORgT (Homo sapiens, UniProt P51449) | class 3 |
| CC(C)c1cc(Oc2c(Cl)cc(NC(=O)Cc3cccnc3)cc2Cl)ccc1OC(F)(F)F [Example 259] | RORgT (Homo sapiens, UniProt P51449) | class 3 |
| COc1ccc(Oc2c(Cl)ccc(C(=O)N3CCCCC3)c2Cl)cc1C(C)C [Example 184] | RORgT (Homo sapiens, UniProt P51449) | class 3 |
| COc1ccc(Oc2c(Cl)ccc(C(=O)NCc3ccc(S(N)(=O)=O)nc3)c2Cl)cc1C(C)C [Example 101] | RORgT (Homo sapiens, UniProt P51449) | class 1 |
| COc1ccc(Oc2c(Cl)ccc(C(=O)NCc3cccc(Cl)c3)c2Cl)cc1C(C)C [Example 198] | RORgT (Homo sapiens, UniProt P51449) | class 3 |

Exercise: Category lookup for the compound CC(C)c1cc(F)cc(Oc2c(Cl)cc(NC(=O)Cc3cccc(S(C)(=O)=O)c3)cc2Cl)c1 [Example 328]
Solution: class 1

Exercise: Category lookup for the compound COc1ccc(Oc2c(Cl)cc(NC(=O)CC3CCCN(S(N)(=O)=O)C3)cc2Cl)cc1C(C)C (stereo not shown) [Example 314]
Solution: class 3

Exercise: Category lookup for the compound CC(C)c1cc(F)cc(Oc2c(Cl)ccc(C(=O)N3CCC4(CC3)CN(S(=O)(=O)C3CC3)C4)c2Cl)c1 [Example 125]
Solution: class 3

Exercise: Category lookup for the compound COc1ccc(Oc2c(Cl)ccc(C(=O)Nc3cccc4cnccc34)c2Cl)cc1C(C)C [Example 207]
Solution: class 2

Exercise: Category lookup for the compound CCS(=O)(=O)N[C@H]1CCCN(CC(=O)Nc2cc(Cl)c(Oc3ccc(OC)c(C(C)C)c3)c(Cl)c2)C1 [Example 172]
Solution: class 2

Exercise: Category lookup for the compound CC(C)c1cc(Oc2c(Cl)cc(NC(=O)CC3CCN(S(C)(=O)=O)CC3)cc2Cl)ccc1F [Example 266]
Solution: class 1

Exercise: Category lookup for the compound COc1ncc(Oc2c(Cl)cc(NC(=O)CC3CCN(S(=O)(=O)CCl)CC3)cc2Cl)cc1C(C)C [Example 127]
Solution: class 1

Exercise: Category lookup for the compound CC1(c2cc(F)cc(Oc3c(Cl)ccc(C(=O)N4CCC5(CC4)CN(S(C)(=O)=O)C5)c3Cl)c2)CC1 [Example 277]
Solution: class 1
